target: HsEg5 (Homo sapiens, UniProt P52732); experiment: Fluorescence detection of HsEg5 ATPase activity (ADP Quest, automated); type: biochemical
Sequence (P52732 18-359 limits assumed): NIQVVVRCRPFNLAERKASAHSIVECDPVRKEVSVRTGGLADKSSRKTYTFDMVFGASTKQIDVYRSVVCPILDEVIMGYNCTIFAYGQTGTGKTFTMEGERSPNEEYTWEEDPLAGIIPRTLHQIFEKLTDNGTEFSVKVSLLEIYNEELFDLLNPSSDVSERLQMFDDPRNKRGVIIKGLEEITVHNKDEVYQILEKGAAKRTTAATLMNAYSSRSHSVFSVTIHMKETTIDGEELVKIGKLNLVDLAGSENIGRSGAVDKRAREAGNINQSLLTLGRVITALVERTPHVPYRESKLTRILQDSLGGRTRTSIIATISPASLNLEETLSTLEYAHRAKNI
Mark Satisfied for IC50 under 2000 nM, Not satisfied if at or over.

| Compound | Category label |
| --- | --- |
| CCC(c1nc2cc(Cl)ccc2c(=O)n1Nc1cc(F)ccc1F)N(CCCN)C(=O)c1ccc(C)cc1 (centres unmarked) | Satisfied |
| CCC(c1nc2cc(Cl)ccc2c(=O)n1Nc1ccccc1)N(CCCN)C(=O)c1cccc(Cl)c1Cl (centres unmarked) | Satisfied |
| NCCCN(C(=O)c1ccc(F)cc1)C(Cc1cccs1)c1nc2cc(Cl)ccc2c(=O)n1Nc1ccccc1 (centres unmarked) | Not satisfied |
| CCC(c1nc2cc(Cl)ccc2c(=O)n1Nc1ccccc1)N(CCCN)C(=O)c1ccc2ccccc2n1 (centres unmarked) | Satisfied |
| CC(C)C(c1nc2cc(Cl)ccc2c(=O)n1Nc1ccccc1)N(CCCN)C(=O)c1ccc2ccccc2n1 (centres unmarked) | Not satisfied |
| CC[C@H](c1nc2cc(Cl)ccc2c(=O)n1Nc1ccccc1)N(CCCN)S(=O)(=O)c1ccsc1 | Satisfied |
| CSCCC(c1nc2cc(Cl)ccc2c(=O)n1Nc1ccccc1)N(CCCN)C(=O)c1cccc(Cl)c1F (centres unmarked) | Not satisfied |
| CCC(c1nc2ccc(Cl)cc2c(=O)n1Nc1ccccc1)N(CCCN)C(=O)c1ccc(C)cc1 (centres unmarked) | Satisfied |
| CCC(c1nc2cc(Cl)ccc2c(=O)n1Nc1ccccc1)N(CCCN)C(=O)c1ccc(Br)cc1 (centres unmarked) | Satisfied |
| CC(C)C(c1nc2cc(Cl)ccc2c(=O)n1Nc1ccccc1)N(CCCN)C(=O)c1cc(F)c(Cl)cc1F (centres unmarked) | Satisfied |
| CCC(c1nc2cc(Cl)ccc2c(=O)n1Nc1ccccc1)N(CCCN)C(=O)c1ccc(F)c(Cl)c1F (centres unmarked) | Satisfied |
| CCC(c1nc2cc(Cl)ccc2c(=O)n1Nc1ccccc1)N(CCCN)C(=O)c1cc(Cl)cc(Cl)c1 (centres unmarked) | Satisfied |
| NCCCN(C(=O)c1ccc(F)c(F)c1)C(Cc1cccs1)c1nc2cc(Cl)ccc2c(=O)n1Nc1ccccc1 (centres unmarked) | Satisfied |
| CCC(c1nc2cc(Cl)ccc2c(=O)n1Nc1ccccc1)N(CCCN)C(=O)c1ccc(Cl)c(Cl)c1 (centres unmarked) | Satisfied |
| Cc1ccc(C(=O)N(CCCN)C(c2nc3cc(Cl)ccc3c(=O)n2Nc2ccccc2)C(C)C)cc1F (centres unmarked) | Satisfied |
| CSCCC(c1nc2cc(Cl)ccc2c(=O)n1Nc1ccccc1)N(CCCN)C(=O)c1ccc(-n2cccn2)cc1 (centres unmarked) | Not satisfied |
| CCC(c1nc2cc(Cl)ccc2c(=O)n1Nc1ccccc1)N(CCCN)C(=O)c1ccc(F)c(F)c1 (centres unmarked) | Satisfied |
